meta.source: patent US7056679

# Measured Target: T1, lactate dehydrogenase (LDH)
# T1 construct: Coated at 500 ng/well as non-specific target; also called LDH polypeptide
# Protocol Details: phage ELISA
Reported Endpoint: LDH (OD)
Give just the number in OD; leave the unit off.

INSERT INTO assay_data (binder, unit_tag, observed_measurement) VALUES
  ('EVFVSVWVFRFRVMPVTPGGTAAAGAPVPYPDPLEPRP [DGI-2-20F-PP-E6]', 'OD', 1.2),
  ('EGQRVVFLFGALVAGLCWRDRAAAGAPVPYPDPLEPRP [DGI-2-20F-PP-F3]', 'OD', 1.1);

Input: Value lookup for LDH (OD); key = DRHRAFVAEGLDGFRHSTGVAAAGAPVPYPDPLEPRP [DGI-2-20F-PP-D4]
Output: 1.1
